Test system: A. fumigatus
RUN PARAMETERS: in vitro
Numbered stars: 1 amine (or outer) side, 2 acyl side, 3 side chain; on linkers, the order of the positions; unused ones are H or OH. Bridge positions count the residues as written; N and C are the ends. Square brackets hold non-standard residues; d marks the D form. Peptide text beside a SMILES is read from it. * marks the point of attachment. ξ: configuration not given here. pTerphenylCO(4''-OnC5H11) = CCCCCOc1ccc(-c2ccc(-c3ccc(C(=O)*)cc3)cc2)cc1; Pro(3S-OH,4S-Me) = C[C@H]1CN[C@H](C(=O)O)[C@H]1O; hTyr(3R-OH) = N[C@H](C(=O)O)[C@H](O)Cc1ccc(O)cc1; X1 = CN1CCC(NC[C@H](N[*:1])C(=O)[*:2])CC1; Hyp = O=C(O)[C@@H]1C[C@@H](O)CN1; Thr(3ξ) = CC(O)[C@H](N)C(=O)O; Dap = NC[C@H](N)C(=O)O
MEASURED PARAMETER: Minimal Inhibitory Concentration MIC A. fumigatus (µg/mL)
Response body: numeric value in µg/mL, unit text excluded.

MOLECULE	TARGET OR TEST SYSTEM	RESULT
CCCCCOc1ccc(-c2ccc(-c3ccc(C(=O)N[C@H]4CNC(=O)[C@H](CNC5CCN(C)CC5)NC(=O)[C@@H]5[C@@H](O)[C@@H](C)CN5C(=O)[C@H](C(C)O)NC(=O)[C@H]([C@H](O)Cc5ccc(O)cc5)NC(=O)[C@@H]5C[C@@H](O)CN5C(=O)[C@H](C(C)O)NC4=O)cc3)cc2)cc1 (stereo partly drawn) [Compound E8-9] ({pTerphenylCO(4''-OnC5H11)}-[Dap][Thr(3ξ)][Hyp][hTyr(3R-OH)][Thr(3ξ)][Pro(3S-OH,4S-Me)][X1]; lactam 1-C)	A. fumigatus	5.0

Here is another molecule to look at.
For C[C@@H]1[C@H](O)[C@@H](C)/C=C/C=C/C=C/C=C/C=C/C=C/C=C/[C@H](O[C@@H]2O[C@H](C)[C@@H](O)[C@H](N)[C@@H]2O)C[C@@H]2O[C@](O)(C[C@@H](O)C[C@@H](O)[C@H](O)CC[C@@H](O)C[C@@H](O)CC(=O)O[C@H]1C)C[C@H](O)[C@H]2C(=O)O [Ampho B, Amphotericin B, reference compound] , write its Minimal Inhibitory Concentration MIC A. fumigatus. 0.312
